assay: Degradation of nine organochlorine pesticides by gamma irradiation in samples of P. quinquefolium (GC analysis); assay type: physicochemical; conditions: 20 kGy gamma irradiation, P. quinquefolium samples, mean of three
Outcome Measure: remaining concentration of organochlorine pesticides in samples (ppm)
Number in ppm, nothing else.

{"Molecule": "Cl[C@H]1[C@H](Cl)[C@@H](Cl)[C@@H](Cl)[C@H](Cl)[C@H]1Cl", "Unit Of Measure": "ppm", "Recorded Value": 0.147}
{"Molecule": "O=S1OC[C@@H]2[C@H](CO1)[C@]1(Cl)C(Cl)=C(Cl)[C@]2(Cl)C1(Cl)Cl (stereo partly drawn) [Endosulfan-2]", "Unit Of Measure": "ppm", "Recorded Value": 0.144}
{"Molecule": "Clc1ccc(C(c2ccc(Cl)cc2)C(Cl)Cl)cc1", "Unit Of Measure": "ppm", "Recorded Value": 0.179}

Looking for the measured remaining concentration of organochlorine pesticides in samples of Clc1ccc(C(c2ccccc2Cl)C(Cl)Cl)cc1 (stereo not drawn) , can you help?
0.155

GET /values?readout=remaining concentration of organochlorine pesticides in samples&item= O=S1OC[C@@H]2[C@H](CO1)[C@@]1(Cl)C(Cl)=C(Cl)[C@]2(Cl)C1(Cl)Cl (stereo partly drawn) [Endosulfan-1]
0.192

The measured values listed here are drawn from patent US20070281046A1.
